All figures here come from ChEMBL document CHEMBL1201862.

Listing: GI50 of selected compounds
test system: PC-3; assay: NCI tumour cell line growth inhibition, 48 h
Activity calls are given as the source filed them. No stated cut-off is given here; in the data, active = GI50 up to about 1.1 µM and inactive = higher.

Examples from the recorded data:
>  <compound>
C[C@@H](Oc1ccc(Oc2cnc3ccc(Cl)cc3n2)cc1)C(=O)O [R(+)XK469]

>  <readout.kind>
GI50

>  <data.value>
> 100 µM (inactive)

$$$$
>  <compound>
NC1=CN(Cc2ccccc2)C2=N/C(=C\c3ccccc3)C(=O)N12

>  <readout.kind>
GI50

>  <data.value>
> 100 µM (inactive)

$$$$

Enquiry: Please look at this compound and report its GI50: CC(C)(C)c1c2c(c(C(C)(C)C)c3c1OCN(Cc1ccccc1)C3)OCN(Cc1ccccc1)C2
Return: 16.6 µM (inactive)

Enquiry: Could you please provide reported GI50 for CSC1(SC)CCCCCCCCCCC1 ? Thanks!
Return: 40.9 µM (inactive)

Enquiry: Indicate the recorded GI50 value for this compound: Cn1c(=O)oc2cc(C(=S)N3CCC(Cc4ccccc4)CC3)ccc21
Return: > 100 µM (inactive)

Enquiry: Supply GI50 value. Item: O=C(Nc1sccc1S(=O)(=O)c1ccc(Cl)cc1)c1ccccc1
Return: > 100 µM (inactive)
